- test-system: T1, IL-1beta (UniProt P01584 117-269)
- T1 construct: also called IL-1β
- assay-notes: Biacore
Listed binders paired with reported fold difference in affinity vs parental
Give the number; fold is assumed, so skip it.

Req: Fill blank: measured fold difference in affinity vs parental of the binder XPA23 Fab, heavy chain R59N (Fab, V domains shown) VH: EVQLLESGGGLVQPGGSLRLSCAASGFTFSKYFMFWVRQAPGKGLEWVSVISPSGGMTNYADSVKGRFTISRDNSKNTLYLQMNSLRAEDTAVYYCARVGYGGNSDYWGQGTLVTVSS VL: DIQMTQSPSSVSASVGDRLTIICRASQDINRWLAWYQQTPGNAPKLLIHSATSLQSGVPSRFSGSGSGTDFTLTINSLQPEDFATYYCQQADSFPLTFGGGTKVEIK is ____.
Resp: 0.86

Okay, now this binder:
Req: Endpoint output: fold difference in affinity vs parental of XPA23 Fab, heavy chain Y32E (Fab, V domains shown) VH: EVQLLESGGGLVQPGGSLRLSCAASGFTFSKEFMFWVRQAPGKGLEWVSVISPSGGMTRYADSVKGRFTISRDNSKNTLYLQMNSLRAEDTAVYYCARVGYGGNSDYWGQGTLVTVSS VL: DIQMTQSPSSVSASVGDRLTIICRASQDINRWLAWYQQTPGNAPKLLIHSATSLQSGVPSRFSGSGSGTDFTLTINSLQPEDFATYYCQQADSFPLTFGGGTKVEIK . Value?
Resp: 0.12

The origin of these recorded values is patent US20110118131A1.
